# Assay System: T1, cyBCMA (cynomolgus, UniProt A0A2K5UD97 1-53)
# T1 construct: Soluble analyte in SPR; construct not described; also called cyno BCMA
# T1 sequence (A0A2K5UD97 entry or part of it): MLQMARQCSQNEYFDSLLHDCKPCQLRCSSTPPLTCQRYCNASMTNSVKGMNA
# Experiment Description: SPR, immobilised IgG, 37° C
Observable: T½ (min)
Write down the numeric answer in min and omit the unit.

Given the entry L3.PY/H2.QR (antibody, V domains shown, IgG in the assay) VH: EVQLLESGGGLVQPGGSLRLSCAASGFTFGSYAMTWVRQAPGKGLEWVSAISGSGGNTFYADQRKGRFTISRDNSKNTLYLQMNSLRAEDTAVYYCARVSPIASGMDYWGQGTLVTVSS VL: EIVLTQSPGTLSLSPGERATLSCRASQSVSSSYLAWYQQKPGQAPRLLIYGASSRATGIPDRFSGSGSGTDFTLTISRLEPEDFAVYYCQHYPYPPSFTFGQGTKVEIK , report its measured T½.
1.76

Quick one: T½ for L3.PY/L1.AH/H2.YQ (antibody, V domains shown, IgG in the assay) VH: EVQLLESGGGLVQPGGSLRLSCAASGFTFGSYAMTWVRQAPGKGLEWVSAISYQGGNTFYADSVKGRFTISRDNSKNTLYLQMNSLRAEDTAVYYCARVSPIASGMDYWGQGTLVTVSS VL: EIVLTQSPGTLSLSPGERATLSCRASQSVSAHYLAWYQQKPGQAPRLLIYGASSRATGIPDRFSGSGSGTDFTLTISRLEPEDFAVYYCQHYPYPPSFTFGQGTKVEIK ?
2.68

Could you share which T½ value was measured for L3.PY/H3.AQ (antibody, V domains shown, IgG in the assay) VH: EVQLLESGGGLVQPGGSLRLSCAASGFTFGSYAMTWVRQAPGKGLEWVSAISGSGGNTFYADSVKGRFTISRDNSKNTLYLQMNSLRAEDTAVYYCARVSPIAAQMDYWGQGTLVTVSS VL: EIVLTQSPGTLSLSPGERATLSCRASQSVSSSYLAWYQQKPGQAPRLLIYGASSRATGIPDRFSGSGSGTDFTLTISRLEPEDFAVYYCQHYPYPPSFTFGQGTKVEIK ?
2.14
